Field: logD. Provide a value for each of the compounds that follow.
- method.notes: physchem
- conditions: octan-1-ol/water, pH 7.4, LogD7.4
Give bare numbers.

Some solved cases for reference:
>>> reported_value("Cc1onc(CO)c1C(=O)Nc1nccs1")
1.53
>>> reported_value("COc1cc2ncnc(Nc3ccc(F)c(Cl)c3)c2cc1OCCCN1CCCC1")
3.13
>>> reported_value("COc1cc(CCc2cc(Nc3ccnc(NCc4ccccn4)n3)[nH]n2)cc(OC)c1")
3.5
>>> reported_value("CCc1nc2cc(O)ccc2c(Oc2ccc(/C=C/C(=O)O)cc2)c1-c1ccccc1")
3

Hi team, please reply with logD for each item in this list.
1. COc1cc(N2CCN(C(C)=O)CC2)ccc1Nc1ncc(Cl)c(-c2cnc3cc(C)ccn23)n1
2. Cc1ccc(C#N)cc1-c1cc(C(F)(F)F)ccc1OCC(=O)O

output:
[3.3, 0.15]

* * *

- method.notes: physchem
- conditions: pH 7.4 buffer
measured.metric: solubility thermodynamic (µM)
Give bare numbers, in µM.

Parameters: items (list). Returns: solubility thermodynamic for each item.
1. CN(C)C(=O)[C@H](Cc1ccccc1)NC(=O)c1cc2cc(Br)sc2[nH]1
2. c1ccc(Nc2ccnc3ccccc23)cc1
3. Cc1cccc(NS(=O)(=O)c2ccc(-c3ccc(C#N)cc3)cc2)n1

output:
1. 0.9
2. 324
3. 17.4

* * *

Would you kindly list logD for each of these compounds?
- method.notes: physchem
- conditions: octan-1-ol/water, pH 7.4, LogD7.4
Answers are plain numbers.

Example cases with answers are listed next.
>>> reported_value("CS(=O)(=O)c1ccc(-c2cc(C(=O)N[C@H]3CCCNC3)c(NC(N)=O)s2)cc1")
0.68
>>> reported_value("CCC1(c2ccccc2)NC(=O)N(C)C1=O (stereo not given)")
1.59
>>> reported_value("Clc1ccc2c(c1Nc1ncnc3cc(OCCN4CCCC4)cc(OC4CCOCC4)c13)OCO2")
2.6
>>> reported_value("COc1cc2c(Nc3ccc(Br)cc3F)ncnc2cc1OC[C@@H]1CCCN(C)C1")
3.05

Read the next record carefully.
input: Requested field: logD. Item: COc1cccc2c1c(NS(=O)(=O)c1ccc(Cl)s1)nn2Cc1cccc(CNC(=O)[C@@H]2COCCN2)c1
output: 1.61

* * *

- method.notes: physchem
- conditions: octan-1-ol/water, pH 7.4, LogD7.4
# cutoff 1 applies to logD; >= gives Satisfied, < gives Not satisfied

Field: example entries. Status: answers known.
>>> discrete_label("Cc1ccccc1Cn1ccn2c(=O)cc(N3CCOCC3)nc12")
"Satisfied"
>>> discrete_label("Nc1nonc1C(=NO)Nc1ccc(F)c(Cl)c1")
"Satisfied"
>>> discrete_label("CC(=O)NC[C@H]1CN(c2ccc(-n3ccc(C#N)c3)c(F)c2)C(=O)O1")
"Satisfied"
>>> discrete_label("Cc1nc(S(C)(=O)=O)ccc1Nc1ncnc(OC2CCN(C(=O)OC(C)C)CC2)c1C")
"Satisfied"
>>> discrete_label("COCCNCc1cccc(CCNC[C@H](O)c2ccc(O)c3[nH]c(=O)sc23)c1")
"Not satisfied"

input: Does the reported logD for Cc1ccc(S(=O)(=O)Nc2c(C(=O)NC3CCCCC3)cnn2-c2ccccc2)cc1 fall at or above the 1 mark?
output: Not satisfied

input: Given COc1cc(F)ccc1-c1cncc(CNC[C@@H]2CCCO2)n1 , state whether its logD is at least 1.
output: Satisfied

input: Decide: logD of CNC(=O)c1ccc(Nc2ncc(F)c(-c3cnc(C)n3C(C)C)n2)cc1 >= 1?
output: Satisfied

input: Check the entry CC(C)N1CCN(Cc2cnc(-c3cc(-c4cccc5[nH]ccc45)cc4[nH]ncc34)o2)CC1 : does logD equal or exceed 1?
output: Satisfied

input: Is it the case that Cc1cc(C)cc(CCOCCS(=O)(=O)NCCNCCc2ccc(O)c3nc(O)sc23)c1 has logD reaching or exceeding 1?
output: Satisfied

input: Check the entry O=C(CC12CC3CC(CC(C3)C1)C2)Nc1ccc2[nH]ncc2c1 : does logD equal or exceed 1?
output: Satisfied
